Reference source: patent US20250011363A1

Target: acetylcholine receptor
Experiment: SPR, AchR immobilised on chip, peptide 10 uM
So basically, if Binding affinity (RU) comes in under 100 RU it's fulfilled, and if it's 100 RU or more it's not fulfilled.

RAHVR [5mer-813]; fulfilled

// query Problem: For the binder RRLQTR [6mer-1-206] , is Binding affinity (RU) under 100 RU?
// result not fulfilled

// query Problem: For the binder RKMFR [5mer-806] , is Binding affinity (RU) under 100 RU?
// result fulfilled

// query Problem: For the binder RTCKR [5mer-1134] , is Binding affinity (RU) under 100 RU?
// result fulfilled

// query Problem: For the binder RRWIRR [6mer-1-252] , is Binding affinity (RU) under 100 RU?
// result not fulfilled
